Each recorded value in this set is attributed to PubChem BioAssay AID1030.

- experimental system: Aldehyde dehydrogenase 1A1 (Homo sapiens) (UniProt P00352)
- Sequence (P00352 whole entry, looked up): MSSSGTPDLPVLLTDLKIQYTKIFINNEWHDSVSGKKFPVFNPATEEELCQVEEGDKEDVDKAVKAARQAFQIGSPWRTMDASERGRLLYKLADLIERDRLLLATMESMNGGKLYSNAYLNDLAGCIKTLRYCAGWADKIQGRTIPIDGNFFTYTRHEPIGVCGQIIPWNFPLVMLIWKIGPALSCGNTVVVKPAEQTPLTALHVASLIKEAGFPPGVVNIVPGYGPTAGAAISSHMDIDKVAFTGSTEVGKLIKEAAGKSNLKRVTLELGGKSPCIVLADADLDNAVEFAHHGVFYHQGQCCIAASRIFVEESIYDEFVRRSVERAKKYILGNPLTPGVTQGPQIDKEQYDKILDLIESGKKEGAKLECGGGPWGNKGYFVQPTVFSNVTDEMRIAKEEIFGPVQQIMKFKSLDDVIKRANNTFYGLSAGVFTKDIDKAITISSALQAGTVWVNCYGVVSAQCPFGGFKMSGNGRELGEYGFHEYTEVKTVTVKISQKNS
- test: qHTS Assay for Inhibitors of Aldehyde Dehydrogenase 1 (ALDH1A1)
- cond: Purified ALDH1A1, NADH fluorescence, propionaldehyde substrate; series mostly up to 75.3 µM
In all, about 220,000 compounds went through this assay and about 16,000 (7.3%) were called active. Another 25% or so got no clear call; they are omitted. Calls follow the shape of the dose curve; as a rule, active = well fitted inhibition curve with a large enough effect (not every such curve was filed as active); inconclusive = small, poorly fitted or top-dose-only effect, or another doubt; inactive = no such curve, though single readings can be large or run the other way. Only a selection was taken, and actives are over-represented in it overall.
Respond with a class label; see 1 (active), 0 (inactive)

These recorded examples may help you get a feel for the data.
[[record]]
compound = "CCN(CC(=O)Nc1ccc2c(c1)OCCO2)Cc1cc(=O)oc2cc(C)c(C)cc12"
assigned_category = 1

[[record]]
compound = "O=C(CN1CCN(Cc2ccc(F)cc2Cl)C1=O)NCc1cccs1"
assigned_category = 0

[[record]]
compound = "COC(=O)c1c(NC(=O)c2cccs2)sc2c1CCCC2"
assigned_category = 0

[[record]]
compound = "O=C(c1ccc(Cl)c(Cl)c1)N1CCCC1"
assigned_category = 0

[[record]]
compound = "Cc1ccc(C(=O)NC(=S)NCCN2CCOCC2)cc1"
assigned_category = 0


# lookup: test call for CC(C)NC(=S)N1CCN(C(c2ccccc2)c2ccccc2)CC1 1

Which outcome was assigned to O=c1c(Cl)c(NCc2ccc(F)cc2Cl)cnn1C12CC3CC(CC(C3)C1)C2 in this test? 1

Could you check what this test reported for O=C(Nc1ccccc1C(=O)N1CCCCCC1)c1ccccc1Cl ? 0

Recorded call for Cc1cccc(NC(=O)Nc2nnc(-c3ccccc3)o2)c1 ? 0
